PROCEDURE_DETAILS: Cytotoxicity against human T29Kt1 cells by SRB assay
RECORDED_ENDPOINT: IC50 (µM)

- SUBSTANCE_SMILES: "O=Cc1cn(Cc2ccc(Cl)cc2)c2ccccc12"
  RECORDED_ENDPOINT: "IC50"
  UNIT_INFO: "µM"
  NUMERIC_VALUE: 4.81

###

Test system: Mus musculus
PROCEDURE_DETAILS: Inhibition of MEK1-mediated ERK phosphorylation in human HT-29 cells xenografted in nude mouse assessed as plasma concentration required for inhibition at 100 mg/kg, po administered as single dose measured after 1 to 12 hrs by Western blot analysis
Assay type: functional, organism-based
Design: dose 100 mg/kg, route oral
CONDITION: HT-29, Plasma
pEC50: −log10 of the molar value.
RECORDED_ENDPOINT: pEC50

- SUBSTANCE_SMILES: "C[C@H](CO)COc1ccc([C@H]2NC(=O)N([C@H](C(=O)Nc3ccc(I)cc3F)[C@@H](C)c3ccccc3)C2=O)cc1"
  NUMERIC_VALUE: 5.47
